# experimental target: HDAC7 (Homo sapiens, UniProt Q8WUI4)
# Sequence (Q8WUI4 1-952): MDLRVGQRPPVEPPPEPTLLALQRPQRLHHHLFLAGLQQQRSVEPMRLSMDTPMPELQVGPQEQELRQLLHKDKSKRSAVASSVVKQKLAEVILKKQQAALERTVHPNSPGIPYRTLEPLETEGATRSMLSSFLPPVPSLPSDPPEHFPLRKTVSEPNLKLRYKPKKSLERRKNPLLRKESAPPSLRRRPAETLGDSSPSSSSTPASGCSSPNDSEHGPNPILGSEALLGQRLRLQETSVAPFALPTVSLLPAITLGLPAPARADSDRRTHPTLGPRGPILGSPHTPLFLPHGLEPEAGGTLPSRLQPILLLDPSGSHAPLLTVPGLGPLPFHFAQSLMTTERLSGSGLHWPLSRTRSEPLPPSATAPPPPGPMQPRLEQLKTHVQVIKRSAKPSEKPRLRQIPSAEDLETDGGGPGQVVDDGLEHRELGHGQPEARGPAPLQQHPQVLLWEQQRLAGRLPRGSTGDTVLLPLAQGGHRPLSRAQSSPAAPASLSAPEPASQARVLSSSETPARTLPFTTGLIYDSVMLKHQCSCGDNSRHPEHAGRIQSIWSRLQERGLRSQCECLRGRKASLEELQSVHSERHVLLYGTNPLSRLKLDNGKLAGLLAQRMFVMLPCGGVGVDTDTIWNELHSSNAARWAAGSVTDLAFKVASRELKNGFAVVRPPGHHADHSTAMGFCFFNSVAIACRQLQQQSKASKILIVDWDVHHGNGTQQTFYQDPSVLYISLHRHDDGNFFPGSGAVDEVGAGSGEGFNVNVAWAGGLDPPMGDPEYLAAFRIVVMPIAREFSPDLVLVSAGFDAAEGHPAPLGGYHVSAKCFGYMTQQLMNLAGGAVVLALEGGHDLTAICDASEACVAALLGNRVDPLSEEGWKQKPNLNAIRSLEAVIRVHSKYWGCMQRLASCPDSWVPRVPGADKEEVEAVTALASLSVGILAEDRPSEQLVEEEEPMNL
endpoint: IC50 (µM)
One number for each entry, in µM.

Give recorded IC50. CCC(CC)(c1ccc(C(=O)NCCCCC(=O)NO)cc1)c1ccc(OCC(O)C(C)(C)C)c(C)n1 (stereo not shown)
55.4
